src = ChEMBL document CHEMBL1144443

target: Melanocortin receptor 5 (Homo sapiens); format: cell-based, HEK293
Sequence (P33032 whole entry): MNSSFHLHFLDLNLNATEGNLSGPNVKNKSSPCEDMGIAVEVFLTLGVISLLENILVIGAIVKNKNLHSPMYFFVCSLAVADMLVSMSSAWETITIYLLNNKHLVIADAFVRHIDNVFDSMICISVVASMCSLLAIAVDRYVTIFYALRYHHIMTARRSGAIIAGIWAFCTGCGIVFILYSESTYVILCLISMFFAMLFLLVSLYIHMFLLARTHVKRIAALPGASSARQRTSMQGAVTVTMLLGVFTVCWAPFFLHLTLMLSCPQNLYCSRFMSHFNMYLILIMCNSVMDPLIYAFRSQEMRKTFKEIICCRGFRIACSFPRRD
Readout type: IC50 (nM)
One number for each entry, in nM.

IC50 on Melanocortin receptor 5 (Homo sapiens) for CCCC[C@H](NC(=O)[C@@H](NC(=O)[C@@H](N)Cc1ccc(O)cc1)C(C)C)C(=O)NCC(=O)N[C@@H](Cc1c[nH]cn1)C(=O)N[C@H](Cc1ccccc1)C(=O)N[C@@H](CCCN=C(N)N)C(=O)N[C@H](Cc1ccc2ccccc2c1)C(=O)N[C@@H](CC(=O)O)C(=O)N[C@@H](CCCN=C(N)N)C(=O)N[C@@H](Cc1ccccc1)C(=O)NCC(N)=O is 5

----------
biological target: Melanocortin receptor 4 (Homo sapiens, UniProt P32245); type: cell-based, HEK293
Sequence (P32245 whole entry): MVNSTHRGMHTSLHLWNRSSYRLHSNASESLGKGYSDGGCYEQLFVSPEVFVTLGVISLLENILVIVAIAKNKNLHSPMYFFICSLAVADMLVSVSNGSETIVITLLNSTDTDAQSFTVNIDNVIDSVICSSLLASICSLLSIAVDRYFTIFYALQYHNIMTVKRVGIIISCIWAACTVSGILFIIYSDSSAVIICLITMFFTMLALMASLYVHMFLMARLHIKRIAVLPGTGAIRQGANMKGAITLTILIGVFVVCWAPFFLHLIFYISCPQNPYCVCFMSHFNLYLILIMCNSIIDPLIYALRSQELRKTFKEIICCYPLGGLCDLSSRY
Where a SMILES comes first, the peptide text is derived from it. [ ]: non-standard residue; d: D form. d2Nal = N[C@H](Cc1ccc2ccccc2c1)C(=O)O; Nle = CCCC[C@H](N)C(=O)O
Readout type: pIC50
One number for each entry, as −log10 of the molar value.

// below: answered compounds
CCCC[C@H](NC(=O)[C@@H](NC(=O)[C@@H](N)Cc1ccc(O)cc1)C(C)C)C(=O)NCC(=O)N[C@@H](Cc1cnc[nH]1)C(=O)N[C@H](Cc1ccc2ccccc2c1)C(=O)N[C@@H](CCCNC(=N)N)C(=O)N[C@H](Cc1ccccc1)C(=O)N[C@@H](CC(=O)O)C(=O)N[C@@H](CCCNC(=N)N)C(=O)N[C@@H](Cc1ccccc1)C(=O)NCC(N)=O (H-YV[Nle]GH[d2Nal]R[dF]DRFG-NH2) = 7.70
CCCC[C@H](NC(=O)[C@@H](NC(=O)[C@@H](N)Cc1ccc(O)cc1)C(C)C)C(=O)NCC(=O)N1CCC[C@H]1C(=O)N[C@H](Cc1ccc2ccccc2c1)C(=O)N[C@@H](CCCN=C(N)N)C(=O)N[C@H](Cc1ccc2ccccc2c1)C(=O)N[C@@H](CC(=O)O)C(=O)N[C@@H](CCCN=C(N)N)C(=O)N[C@@H](Cc1ccccc1)C(=O)NCC(N)=O = 8.40
CCCC[C@H](NC(=O)[C@@H](NC(=O)[C@@H](N)Cc1ccc(O)cc1)C(C)C)C(=O)NCC(=O)N[C@@H](Cc1c[nH]cn1)C(=O)N[C@H](Cc1ccccc1)C(=O)N[C@@H](CCCN=C(N)N)C(=O)N[C@H](Cc1ccc2ccccc2c1)C(=O)N[C@@H](CC(=O)O)C(=O)N[C@@H](CCCN=C(N)N)C(=O)N[C@@H](Cc1ccccc1)C(=O)NCC(N)=O = 8.22
CCCC[C@H](NC(=O)[C@@H](NC(=O)[C@@H](N)Cc1ccc(O)cc1)C(C)C)C(=O)NCC(=O)N[C@@H](Cc1c[nH]cn1)C(=O)N[C@@H](Cc1ccccc1)C(=O)N[C@@H](CCCN=C(N)N)C(=O)N[C@@H](Cc1c[nH]c2ccccc12)C(=O)N[C@@H](CC(=O)O)C(=O)N[C@@H](CCCN=C(N)N)C(=O)N[C@@H](Cc1ccccc1)C(=O)NCC(N)=O = 7.19

// sample CCCC[C@H](NC(=O)[C@@H](NC(=O)[C@@H](N)Cc1ccc(O)cc1)C(C)C)C(=O)NCC(=O)N[C@@H](Cc1c[nH]cn1)C(=O)N[C@H](Cc1ccccc1)C(=O)N[C@@H](CCCN=C(N)N)C(=O)N[C@H](Cc1c[nH]c2ccccc12)C(=O)N[C@@H](CC(=O)O)C(=O)N[C@@H](CCCN=C(N)N)C(=O)N[C@@H](Cc1ccccc1)C(=O)NCC(N)=O , its pIC50 was 7.77

----------
target: Melanocortin receptor 4 (Homo sapiens, UniProt P32245); assay: Effective concentration for intracellular cAMP accumulation in human melanocortin 4 receptor expressing HEK 293 cells; (N = 4); format: functional, cell-based, HEK293
Where a SMILES comes first, the peptide text is derived from it. [ ]: non-standard residue; d: D form. d2Nal = N[C@H](Cc1ccc2ccccc2c1)C(=O)O; Nle = CCCC[C@H](N)C(=O)O
Readout type: pEC50
Answers are plain numbers, as −log10 of the molar value.

// below: answered compounds
CCCC[C@H](NC(=O)[C@@H](NC(=O)[C@@H](N)Cc1ccc(O)cc1)C(C)C)C(=O)NCC(=O)N[C@@H](Cc1c[nH]cn1)C(=O)N[C@H](Cc1ccccc1)C(=O)N[C@@H](CCCN=C(N)N)C(=O)N[C@H](Cc1c[nH]c2ccccc12)C(=O)N[C@@H](CC(=O)O)C(=O)N[C@@H](CCCN=C(N)N)C(=O)N[C@@H](Cc1ccccc1)C(=O)NCC(N)=O = 7.54
CCCC[C@H](NC(=O)[C@@H](NC(=O)[C@@H](N)Cc1ccc(O)cc1)C(C)C)C(=O)NCC(=O)N[C@@H](Cc1c[nH]cn1)C(=O)N[C@H](Cc1ccccc1)C(=O)N[C@@H](CCCN=C(N)N)C(=O)N[C@H](Cc1ccc2ccccc2c1)C(=O)N[C@@H](CC(=O)O)C(=O)N[C@@H](CCCN=C(N)N)C(=O)N[C@@H](Cc1ccccc1)C(=O)NCC(N)=O = 7.44

// sample CCCC[C@H](NC(=O)[C@@H](NC(=O)[C@@H](N)Cc1ccc(O)cc1)C(C)C)C(=O)NCC(=O)N[C@@H](Cc1cnc[nH]1)C(=O)N[C@H](Cc1ccc2ccccc2c1)C(=O)N[C@@H](CCCNC(=N)N)C(=O)N[C@H](Cc1ccccc1)C(=O)N[C@@H](CC(=O)O)C(=O)N[C@@H](CCCNC(=N)N)C(=O)N[C@@H](Cc1ccccc1)C(=O)NCC(N)=O (H-YV[Nle]GH[d2Nal]R[dF]DRFG-NH2) , its pEC50 was 5.57

----------
Provide the reported IC50 of each item.
biological target: UniProtKB P41968; type: cell-based, HEK293
Sequence (P41968 whole entry): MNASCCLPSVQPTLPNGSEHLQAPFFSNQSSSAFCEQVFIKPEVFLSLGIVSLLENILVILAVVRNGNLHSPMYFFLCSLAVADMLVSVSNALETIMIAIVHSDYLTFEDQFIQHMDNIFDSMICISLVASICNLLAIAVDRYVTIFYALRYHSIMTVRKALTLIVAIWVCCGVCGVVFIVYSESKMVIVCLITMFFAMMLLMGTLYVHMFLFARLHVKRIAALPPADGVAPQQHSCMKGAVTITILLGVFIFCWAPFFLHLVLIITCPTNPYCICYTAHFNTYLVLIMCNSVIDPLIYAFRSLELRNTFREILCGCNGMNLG
Where a SMILES comes first, the peptide text is derived from it. [ ]: non-standard residue; d: D form. d2Nal = N[C@H](Cc1ccc2ccccc2c1)C(=O)O; Nle = CCCC[C@H](N)C(=O)O
One number for each entry, in nM.

CCCC[C@H](NC(=O)[C@@H](NC(=O)[C@@H](N)Cc1ccc(O)cc1)C(C)C)C(=O)NCC(=O)N1CCC[C@H]1C(=O)N[C@H](Cc1ccc2ccccc2c1)C(=O)N[C@@H](CCCN=C(N)N)C(=O)N[C@H](Cc1ccc2ccccc2c1)C(=O)N[C@@H](CC(=O)O)C(=O)N[C@@H](CCCN=C(N)N)C(=O)N[C@@H](Cc1ccccc1)C(=O)NCC(N)=O = 3
CCCC[C@H](NC(=O)[C@@H](NC(=O)[C@@H](N)Cc1ccc(O)cc1)C(C)C)C(=O)NCC(=O)N[C@@H](Cc1cnc[nH]1)C(=O)N[C@H](Cc1ccc2ccccc2c1)C(=O)N[C@@H](CCCNC(=N)N)C(=O)N[C@H](Cc1ccccc1)C(=O)N[C@@H](CC(=O)O)C(=O)N[C@@H](CCCNC(=N)N)C(=O)N[C@@H](Cc1ccccc1)C(=O)NCC(N)=O (H-YV[Nle]GH[d2Nal]R[dF]DRFG-NH2) = 6
CCCC[C@H](NC(=O)[C@@H](NC(=O)[C@@H](N)Cc1ccc(O)cc1)C(C)C)C(=O)NCC(=O)N1CCC[C@H]1C(=O)N[C@@H](Cc1ccccc1)C(=O)N[C@@H](CCCN=C(N)N)C(=O)N[C@H](Cc1ccc2ccccc2c1)C(=O)N[C@@H](CC(=O)O)C(=O)N[C@@H](CCCN=C(N)N)C(=O)N[C@@H](Cc1ccccc1)C(=O)NCC(N)=O = 32

IC50 on UniProtKB P41968 for CCCC[C@H](NC(=O)[C@@H](NC(=O)[C@@H](N)Cc1ccc(O)cc1)C(C)C)C(=O)NCC(=O)N[C@@H](Cc1c[nH]cn1)C(=O)N[C@H](Cc1ccccc1)C(=O)N[C@@H](CCCN=C(N)N)C(=O)N[C@H](Cc1ccc2ccccc2c1)C(=O)N[C@@H](CC(=O)O)C(=O)N[C@@H](CCCN=C(N)N)C(=O)N[C@@H](Cc1ccccc1)C(=O)NCC(N)=O is 6

----------
target: Melanocortin receptor 4 (Homo sapiens); assay: Effective concentration for intracellular cAMP accumulation in human melanocortin 4 receptor expressing HEK 293 cells; (N = 4); assay type: functional, cell-based, HEK293
Readout type: pEC50
Numbers only, as −log10 of the molar value.

// sample CCCC[C@H](NC(=O)[C@@H](NC(=O)[C@@H](N)Cc1ccc(O)cc1)C(C)C)C(=O)NCC(=O)N1CCC[C@H]1C(=O)N[C@H](Cc1ccc2ccccc2c1)C(=O)N[C@@H](CCCN=C(N)N)C(=O)N[C@H](Cc1ccc2ccccc2c1)C(=O)N[C@@H](CC(=O)O)C(=O)N[C@@H](CCCN=C(N)N)C(=O)N[C@@H](Cc1ccccc1)C(=O)NCC(N)=O , its pEC50 was 8.48
